System: P388 leukemia ip, CD2F1 mice, survival T/C
Experiment: NCI In Vivo Anticancer Drug Screen. Data for tumor model P388 Leukemia (intraperitoneal) in CD2F1 (CDF1) mice
Conditions: endpoint: median survival time; dose: 240.0 mg/kg/injection; schedule: Q01DX005 (ip); vehicle: saline with Tween-80; higher = longer survival
Protocol: The antitumor activity of compounds was measured in mice bearing transplantable tumors. Survival or tumor size were measured and the results are expressed as the measurement made in the treated group (T) divided by the measurement made in the vehicle treated control group (C). The tumor model used in this assay is P388 Leukemia (intraperitoneal) in CD2F1 (CDF1) mice
Toxic doses and inconclusive results are not listed.
Attribute measured: T/C

In the examples that follow, each entry is paired with its recorded T/C.
COC(=O)C1=[N+]([O-])OC(C(=O)OC)C1c1ccc(F)cc1 (stereo not given) | 94 % of control
CSc1nc(NC2OC(COC(C)=O)C(OC(C)=O)C(OC(C)=O)C2OC(C)=O)c(N=C(C)C(C)=O)c(=O)[nH]1 (stereo not given) | 86 % of control
CN1c2ccc(C=O)cc2Sc2cc(C=O)ccc21 | 90 % of control
Cn1ncc2c(=O)[nH]c(-c3ccccc3)nc21 | 105 % of control

Exercise: Entry Cc1ccc2c(c1)C1(SCC(=O)N1c1ccc(Cl)cc1)C(=O)N2 (stereo not given) : reported T/C = ?
Key: 100 % of control

Exercise: Given CC(Cc1ccccc1)N(C)Cc1ccc(-c2ccc(Cl)cc2)o1 (stereo not given) , state its recorded T/C.
Key: 107 % of control

Exercise: Fill blank: measured T/C of the compound CC1(C)CC(=O)C2=C(C1)NC(=O)CC2 is ____.
Key: 96 % of control

Exercise: Query: T/C; subject: NS(=O)(=O)c1ccc(NC(=O)c2cccnc2Nc2cccc(Cl)c2)cc1
Key: 101 % of control

Exercise: Tell me the measured T/C of CC(=O)Nc1ccc(S(=O)(=O)N/N=C/c2cccc([N+](=O)[O-])c2O)cc1 , please.
Key: 103 % of control

Exercise: Look up T/C: O=S(=O)(Nc1ccccc1F)c1ccc(F)cc1
Key: 106 % of control

----------
T/C for assorted molecules
system: P388 leukemia ip, CD2F1 mice, survival T/C; experiment: NCI In Vivo Anticancer Drug Screen. Data for tumor model P388 Leukemia (intraperitoneal) in CD2F1 (CDF1) mice; details: endpoint: median survival time; dose: 200.0 mg/kg/injection; schedule: Q01DX001 (ip); vehicle: Klucel (hydroxypropylcellulose) (HPC); higher = longer survival
Toxic doses and inconclusive results are not listed.

The examples below pair each entry with its known result.
C/C(NCCc1ccccc1)=C1\CCOC1=O | 104 % of control
O=C(O)c1c(Cl)nc2n1CCS2 | 104 % of control
NS(=O)(=O)c1cc([N+](=O)[O-])c(SSc2sc(S(N)(=O)=O)cc2[N+](=O)[O-])s1 | 99 % of control

Exercise: Requested read-out: T/C. Entry: Cn1nnnc1NC#N
Key: 113 % of control

----------
tested on: P388 leukemia ip, CD2F1 mice, survival T/C; test: NCI In Vivo Anticancer Drug Screen. Data for tumor model P388 Leukemia (intraperitoneal) in CD2F1 (CDF1) mice; conditions: endpoint: median survival time; dose: 240.0 mg/kg/injection; schedule: Q01DX005 (ip); vehicle: saline; higher = longer survival
Inconclusive results and toxic doses are left out.
Below, each of the compounds is paired with its reported T/C value.

NCCOCCN | 95 % of control
CC(C)=NNC1=NC(C)(C)P(=O)(N2CCCC2C(=O)O)S1 (stereo not given) | 102 % of control
O=C1NC(=O)C2C3CCC(O3)C12 (stereo not given) | 92 % of control
CCN(CCO)CC(O)Cn1cnc2c(N)ncnc21 (stereo not given) (tested in a mixture with another compound) | 95 % of control
O=C(O)C1=C/C(=C(/c2ccccc2)c2cc(C(=O)O)c(O)c3ccccc23)c2ccccc2C1=O | 95 % of control
CSc1nnc(C2CCC(=O)N2Cc2ccccc2)o1 (stereo not given) | 104 % of control
Cn1c(O)c(C2=NC(C(=O)O)CS2)c(=O)n(C)c1=O (stereo not given) | 101 % of control
CC(=O)N(C)N | 93 % of control
C[N+]1([O-])CC[N+](C)([O-])CC1 (stereo not given) | 100 % of control

Exercise: Which T/C is reported with P388 leukemia ip, CD2F1 mice, survival T/C for this entry: O=C1C[C@@H]2OC3=C(C(=O)CCC3)[C@@H]2O1 ?
Key: 119 % of control
